- System: K-562 leukemia
- TEST_PROTOCOL: NCI tumour cell line growth inhibition, 48 h
The molecules listed here are annotated with their TGI.

>  <MOLECULE>
CNc1nc(N)cc(=O)[nH]1

>  <TGI>
> 100 µM

$$$$
>  <MOLECULE>
Cc1cc(C)nc(NS(=O)(=O)c2ccc(Nc3c4ccccc4nc4c(C(=O)N5CCN(CCO)CC5)ccc(Cl)c34)cc2)n1

>  <TGI>
> 100 µM

$$$$
>  <MOLECULE>
NC(=O)c1ccc(NCC2=CC(=O)C=CC2=O)cc1

>  <TGI>
49.1 µM

$$$$
>  <MOLECULE>
CCCCC(=O)Nc1ccc2cc(C(=O)OC)c(Cl)nc2n1

>  <TGI>
> 100 µM

$$$$
>  <MOLECULE>
CCCCc1ccc(N2C(=O)c3cc([N+](=O)[O-])cnc3S2(=O)=O)cc1

>  <TGI>
> 100 µM

$$$$
>  <MOLECULE>
O=c1oc2ccccc2c(O)c1/C=N\c1nc(-c2ccc(O)c(O)c2)cs1

>  <TGI>
10.4 µM

$$$$
>  <MOLECULE>
O=c1[nH]c2c3ccncc3cc(-c3cccc(Cl)c3)c2c2cnccc12

>  <TGI>
> 100 µM

$$$$
>  <MOLECULE>
CNCCC/C=C1\c2cc3c(cc2-c2c1c1cc(OC)c(OC)cc1c(=O)n2C)OCO3

>  <TGI>
5.87 µM

$$$$
>  <MOLECULE>
O=C1c2ccccc2OCC1/C=N/O (stereo unspecified)

>  <TGI>
> 100 µM

$$$$
>  <MOLECULE>
NC(N)=NS(=O)(=O)c1ccc(NC(=O)c2cccc3cc4ccccc4nc23)cc1

>  <TGI>
> 100 µM

$$$$
>  <MOLECULE>
COc1nc2ncc([C@@H](O)[C@H](O)CO)nc2c(=O)n1C

>  <TGI>
> 100 µM

$$$$

###

- Tested on: A498 renal
- TEST_PROTOCOL: NCI tumour cell line growth inhibition, 48 h
Decision: TGI compared against 70 µM; not below it gives yes, below it gives no.

>  <COMPOUND>
COc1cc(Nc2cnc3ccc(N)cc3n2)cc(OC)c1OC

>  <STUDY_SYSTEM>
A498 renal

>  <GROUP>
yes

$$$$
>  <COMPOUND>
Cc1nc2c(nc1C)C(=O)C1=C(C2=O)C2C=CC1CC2

>  <STUDY_SYSTEM>
A498 renal

>  <GROUP>
yes

$$$$
>  <COMPOUND>
Cc1ccccc1N1C(N)=C(C#N)C(C#N)(C#N)C1c1ccccc1 (stereo unspecified)

>  <STUDY_SYSTEM>
A498 renal

>  <GROUP>
no

$$$$
>  <COMPOUND>
CCN1CCN(Cc2ccc(NC(=O)c3nc4ccc5[nH]ncc5c4c4c3CCCC4)cc2C(F)(F)F)CC1

>  <STUDY_SYSTEM>
A498 renal

>  <GROUP>
no

$$$$
>  <COMPOUND>
COC1OC(Cn2c(C)nc(Br)c2Br)C(O)C(O)C1O (stereo unspecified)

>  <STUDY_SYSTEM>
A498 renal

>  <GROUP>
yes

$$$$
>  <COMPOUND>
C/C=C/CC(S(=O)(=O)c1ccccc1)S(=O)(=O)c1ccccc1

>  <STUDY_SYSTEM>
A498 renal

>  <GROUP>
yes

$$$$
>  <COMPOUND>
C/C(=C1/N=C(c2cc([N+](=O)[O-])ccc2Cl)N(c2ccc(Br)cc2)C1=O)c1cc2ccccc2oc1=O

>  <STUDY_SYSTEM>
A498 renal

>  <GROUP>
no

$$$$
>  <COMPOUND>
Nc1ncnc2c1ncn2C1OC(CO)C2OC21 (stereo unspecified)

>  <STUDY_SYSTEM>
A498 renal

>  <GROUP>
yes

$$$$
>  <COMPOUND>
NC(=O)c1cc(Cl)ccc1NC(=O)COc1ccccc1

>  <STUDY_SYSTEM>
A498 renal

>  <GROUP>
no

$$$$
>  <COMPOUND>
Cc1ccc2cc3cccc(C(=O)NCCN(C)C)c3nc2c1

>  <STUDY_SYSTEM>
A498 renal

>  <GROUP>
no

$$$$

###

- System: SK-MEL-5 melanoma
- TEST_PROTOCOL: NCI tumour cell line growth inhibition, 48 h
MEASURED_QUANTITY: TGI

>  <MOLECULAR_STRING>
O=C1C=C(Nc2cccnc2)c2ccccc2C1=O

>  <MEASURED_QUANTITY>
TGI

>  <VAL>
2.58 µM

$$$$
>  <MOLECULAR_STRING>
CCN(CC)c1c(C)c(C(=O)OC)nn1-c1ccccc1

>  <MEASURED_QUANTITY>
TGI

>  <VAL>
> 100 µM

$$$$
>  <MOLECULAR_STRING>
S=C1Cc2cc3ccccc3nc2-c2ccccc2N1

>  <MEASURED_QUANTITY>
TGI

>  <VAL>
> 100 µM

$$$$

###

The compounds listed here are annotated with their TGI.
- Tested on: SW-620 colon
- TEST_PROTOCOL: NCI tumour cell line growth inhibition, 48 h

>  <MOLECULAR_STRING>
COC(=O)[C@]1(C)CCC[C@]2(C)[C@H]3CC[C@]4(C(C)C)OO[C@@H](O4)[C@]34O[C@@H]4C[C@H]21

>  <STUDY_SYSTEM>
SW-620 colon

>  <TGI>
> 33.7 µM

$$$$
>  <MOLECULAR_STRING>
OC(Cc1ccc2ccccc2n1)(C(F)(F)F)C(F)(F)F

>  <STUDY_SYSTEM>
SW-620 colon

>  <TGI>
> 10 µM

$$$$
>  <MOLECULAR_STRING>
COc1ccc(CNC(=O)[C@H](Cc2ccc(O)cn2)NC(C)=O)cc1OC

>  <STUDY_SYSTEM>
SW-620 colon

>  <TGI>
> 100 µM

$$$$
>  <MOLECULAR_STRING>
N#C/C(=C/N1C(=O)/C(=C/c2ccc([N+](=O)[O-])cc2)SC1=S)c1nc2ccccc2s1

>  <STUDY_SYSTEM>
SW-620 colon

>  <TGI>
> 100 µM

$$$$
>  <MOLECULAR_STRING>
CC(C)CC(=O)[O-].N.N.N.N.N.[Co+3].[O-][Cl+3]([O-])([O-])[O-]

>  <STUDY_SYSTEM>
SW-620 colon

>  <TGI>
> 100 µM

$$$$
